inhibition at 200 µM for assorted compounds
Test system: methicillin-resistant S. aureus (MRSA)
EXPERIMENT DESCRIPTION: Antibacterial assay
Assay type: cell-based, Staphylococcus aureus
MEASUREMENT CONDITIONS: Staphylococcus aureus, MRSA; 200 μM, 24 h; read-out: Inhibition rate against Methicillin-resistant Staphylococcus aureus
Structures can show the parent of a compound that is named as a salt.
Provide only the numeric value, understood in %.

Request the reported inhibition at 200 µM associated with CC1(C)S[C@@H]2[C@H](NC(=O)Cc3ccccc3)C(=O)N2[C@H]1C(=O)O [Penicillin G sodium, Penicillin G sodium salt, reference compound]
60.5

Tell me the measured inhibition at 200 µM of COc1cc(O)cc2c1C(=O)c1c(O)cc(C)cc1[C@@H]2[C@H](C)CC(C)=O [Compound 3, (10S,12R)-Chevalierone] , please.
74.1

Please report the recorded inhibition at 200 µM for COc1cc(O)cc2c1C(=O)c1c(O)cc(C)cc1[C@H]2[C@@H](C)CC(C)=O [Compound 5, (10R,12S)-Chevalierone] .
88.5

If you can, please state the reported inhibition at 200 µM value of COc1cc(O)cc2c1C(=O)c1c(O)cc(C)cc1[C@H]2[C@H](C)CC(C)=O [Compound 4, (10R,12R)-Chevalierone] .
85
